# System: winter wheat
# methodSummary: Test E winter wheat
# Format: in vivo, Triticum aestivum
# testConditions: Rate 500 g/ha, Postemergence; 0 to 100 scale, 0 is no effect, 100 is complete control
# Description: […] All plant species were grown using normal greenhouse practices. […] Treated plants and untreated controls were maintained in a greenhouse for approximately 21 to 28 days, after which all treated plants were compared to untreated controls and visually evaluated. […]
Entries and their Plant response rating, Wheat (winter)
// keep it numeric: no unit symbol after the value

Solved entries:
compound	metric	valueMeasured
CC(C)N(C(=O)n1oc(=O)n(Cc2ccco2)c1=O)c1ccc(F)cc1 [Compound 207]	Plant response rating, Wheat (winter)	30
CC(C)=CCn1c(=O)on(C(=O)N(c2ccc(F)cc2)C(C)C)c1=O [Compound 288]	Plant response rating, Wheat (winter)	30
CC(C)Cn1c(=O)on(C(=O)N(c2ccc(F)cc2)C(C)C)c1=O [Compound 169]	Plant response rating, Wheat (winter)	50
CCN(CC)C(=O)n1oc(=O)n(C2CC2)c1=O [Compound 297]	Plant response rating, Wheat (winter)	60
CC(C)N(C(=O)n1oc(=O)n(C2CC2)c1=O)c1ccc(Cl)cc1 [Compound 241]	Plant response rating, Wheat (winter)	50

Input: Query: Plant response rating, Wheat (winter); subject: CC1CCCCC1n1c(=O)on(C(=O)N(c2ccc(F)cc2F)C(C)C)c1=O (stereo not drawn) [Compound 172]
Output: 40

* * *

# Test system: crabgrass
# methodSummary: Test B pre/postemergence crabgrass
# Format: in vivo, Digitaria sanguinalis
# testConditions: Preemergence, Rate 125 g/ha; scale 0 to 10, 0 is no effect, 10 is complete control
# Method: […] At the same time, these crop and weed species were also treated with postemergence applications of test chemicals formulated in the same manner. […] Treated plants and controls were maintained in a greenhouse for twelve to sixteen days, after which all species were compared to controls and visually evaluated. […]
Parameter: Crabgrass plant response rating. Scope: all listed entries.
Enter the number alone.

compound	Crabgrass plant response rating
C=CCCCn1c(=O)on(C(=O)N(c2ccc(F)cc2F)C(C)C)c1=O [Compound 516]	9
CC(=O)C(C)n1c(=O)on(C(=O)N(c2ccccc2)C(C)C)c1=O (stereo not shown) [Compound 576]	4
CCOC(=O)C=C(Cn1c(=O)on(C(=O)N(c2ccc(F)cc2F)C(C)C)c1=O)OCC [Compound 519]	8

We now examine a further compound.
Input: Enter reported Crabgrass plant response rating observed with crabgrass for CCC(=O)Cn1c(=O)on(C(=O)N(c2ccc(Cl)cc2)C(C)C)c1=O [Compound 553]
Output: 9

* * *

# System: bedstraw
# methodSummary: Test B pre/postemergence bedstraw
# Type: in vivo, Galium aparine
# testConditions: Postemergence, Rate 250 g/ha; scale 0 to 10, 0 no effect, 10 complete control
metric: Bedstraw plant response rating
// print number alone

Here is how some molecules turned out for Bedstraw plant response rating.
molecule	Bedstraw plant response rating
CC(C)N(C(=O)n1oc(=O)n(C2CCCCC2C(F)(F)F)c1=O)c1ccc(F)cc1 (stereo not shown)	8
CC(C)N(C(=O)n1oc(=O)n(-c2cc(Cl)cc(Cl)c2)c1=O)C1=CCOCC1	0

Input: Dear colleague, I am looking for the recorded Bedstraw plant response rating of the following molecule: "CCN(CC)C(=O)n1oc(=O)n(-c2cccc3c2CCCC3)c1=O"
Output: 0

Input: Look up Bedstraw plant response rating for this molecule: "CC(C)Oc1cc(-n2c(=O)on(C(=O)N(c3ccc(F)cc3)C(C)C)c2=O)c(Cl)cc1Cl"
Output: 0

Input: Consider the molecule shown here: "Cc1ccccc1Cn1c(=O)on(C(=O)N(c2ccc(F)cc2)C(C)C)c1=O" What is its recorded Bedstraw plant response rating?
Output: 9

Input: Given the entry "CCc1noc(CC)c1-n1c(=O)on(C(=O)N(c2ccc(F)cc2)C(C)C)c1=O" , report its measured Bedstraw plant response rating.
Output: 0

Input: Which measured Bedstraw plant response rating value corresponds to "Cc1nn(C)c(C)c1-n1c(=O)on(C(=O)N(c2ccc(F)cc2)C(C)C)c1=O" ?
Output: 0

* * *

Listed next: entries and their corresponding Corn plant response rating.
# Test system: corn
# methodSummary: Test B pre/postemergence corn
# Assay type: in vivo, Zea mays
# testConditions: Postemergence, Rate 250 g/ha; scale 0 to 10
Just the number, please.

compound	target	Corn plant response rating
C=CCCCn1c(=O)on(C(=O)N(c2ccc(F)cc2F)C(C)C)c1=O [Compound 516]	corn	0
CC(C)N(C(=O)n1oc(=O)n(C2CCCCCC2)c1=O)C1=CCCCC1 [Compound 428]	corn	0
COC(CCl)n1c(=O)on(C(=O)N(c2ccc(Cl)cc2)C(C)C)c1=O (stereo not drawn) [Compound 458]	corn	2
C=CC[Si](C)(C)Cn1c(=O)on(C(=O)N(c2ccc(F)cc2)C(C)C)c1=O [Compound 426]	corn	2
COC(=O)C(C)n1c(=O)on(C(=O)N(c2ccc(F)cc2F)C(C)C)c1=O (stereo not drawn) [Compound 463]	corn	0

Lab note: next compound to report on.
Input: // lookup Corn plant response rating | system=corn | key= CC(C)C(=O)Cn1c(=O)on(C(=O)N(c2ccc(Cl)cc2)C(C)C)c1=O [Compound 487]
Output: 0

* * *

# System: sugar beet
# methodSummary: Test B pre/postemergence sugar beet
# Assay type: in vivo, Beta vulgaris
# testConditions: Preemergence, Rate 125 g/ha; scale of 0 to 10 where 0 is no effect and 10 is complete control
metric: Plant response rating, Sugarbeets

molecule	Plant response rating, Sugarbeets
CC(C)N(C(=O)n1oc(=O)n(CCCl)c1=O)c1ccc(Cl)cc1 [Compound 474]	0
CC(C)Cn1c(=O)on(C(=O)N(c2ccc(Cl)cc2)C(C)C)c1=O [Compound 417]	0
CC(C)N(C(=O)n1oc(=O)n(C(C)C(=S)N(C)C)c1=O)c1ccc(F)cc1 (stereo not shown) [Compound 728]	0
CCn1ncc(Cn2c(=O)on(C(=O)N(c3ccc(F)cc3)C(C)C)c2=O)c1Cl [Compound 686]	0
CC(C)N(C(=O)n1oc(=O)n(C(C)C(=O)N(C)C)c1=O)c1ccc(Cl)cc1 (stereo not shown) [Compound 480]	0
CCOC(=O)CC(C(=O)OCC)n1c(=O)on(C(=O)N(c2ccc(F)cc2F)C(C)C)c1=O (stereo not shown) [Compound 465]	2
COC(OC)C(C)n1c(=O)on(C(=O)N(c2ccc(F)cc2F)C(C)C)c1=O (stereo not shown) [Compound 472]	2
CC(C)N(C(=O)n1oc(=O)n(C(C)C2CC2)c1=O)c1ccc(F)cc1 (stereo not shown) [Compound 404]	3

Input: Reported Plant response rating, Sugarbeets, molecule CC(C)N(C(=O)n1oc(=O)n(CNC(=O)c2ccccc2)c1=O)c1ccc(F)cc1 [Compound 445] : ____
Output: 0

Input: Fill in the blank: the reported Plant response rating, Sugarbeets of CC(C)N(C(=O)n1oc(=O)n(C(C)CCl)c1=O)c1ccc(F)cc1F (stereo not shown) [Compound 408] is ____.
Output: 4

* * *

# System: crabgrass
# methodSummary: Test B pre/postemergence crabgrass
# Assay type: in vivo, Digitaria sanguinalis
# testConditions: Postemergence, Rate 62 g/ha; scale 0 to 10, 0 is no effect, 10 is complete control
Quick rule for you: Plant response rating, Crabgrass at 3 or higher means T, lower means F.

molecule	groupLabel
CCC(C)n1c(=O)on(C(=O)N(c2ccc(F)cc2)C(C)C)c1=O (stereo not drawn)	T

Input: Does the reported Plant response rating, Crabgrass for "CC(C)N(C(=O)n1oc(=O)n(CC(=O)C2CCC2)c1=O)c1ccccc1" fall at or above the 3 mark?
Output: F

* * *

Each entry below carries its recorded Soybean plant response rating.
# System: soybean
# methodSummary: Test B pre/postemergence soybean
# Type: in vivo, Glycine max
# testConditions: Rate 62 g/ha, Postemergence; scale 0 to 10 (0 no effect, 10 complete control)
// keep it numeric: no unit symbol after the value

Sample records with Soybean plant response rating:
compound	Soybean plant response rating
CC(C)=CCn1c(=O)on(C(=O)N(c2ccc(F)cc2)C(C)C)c1=O	0
CC(C)N(C(=O)n1oc(=O)n(C2CC3CCC2C3)c1=O)c1ccc(F)cc1F (centres unmarked)	3
CCN(CC)C(=O)n1oc(=O)n(C2CC2)c1=O	2
CC(C)N(C(=O)n1oc(=O)n(CCC[Si](C)(C)C)c1=O)c1ccc(F)cc1	2
CC(C)N(C(=O)n1oc(=O)n(-c2ccc3ccccc3c2)c1=O)c1ccc(F)cc1F	1
Cc1c(-n2c(=O)on(C(=O)N(c3ccc(F)cc3)C(C)C)c2=O)ccc2ccccc12	1
CC(C)N(C(=O)n1oc(=O)n(CCCN(C)C)c1=O)c1ccc(F)cc1	0

Kindly review the next compound as well.
Input: Need Soybean plant response rating, item COC(OC)C(C)n1c(=O)on(C(=O)N(c2ccc(F)cc2F)C(C)C)c1=O (centres unmarked)
Output: 2

* * *

# Test system: wheat
# methodSummary: Test B pre/postemergence wheat
# Format: in vivo, Triticum aestivum
# testConditions: Preemergence, Rate 250 g/ha; scale of 0 to 10 where 0 is no effect and 10 is complete control
metric: Wheat plant response rating

A selection of reference data follows.
compound	target	valueMeasured
Cc1nsc(Cl)c1Cn1c(=O)on(C(=O)N(c2ccc(F)cc2)C(C)C)c1=O	wheat	0
C=CCn1c(=O)on(C(=O)N(c2ccc(F)cc2)C(C)C(=O)OCC)c1=O (stereo not shown)	wheat	0
C=C(Cn1c(=O)on(C(=O)N(c2ccc(F)cc2)C(C)C)c1=O)C[Si](C)(C)C	wheat	0

Input: Request the reported Wheat plant response rating associated with "CC(C)N(C(=O)n1oc(=O)n(C2CCCCCC2)c1=O)c1ccc(Cl)cc1"
Output: 0
